Source of measurements: patent US5140014A

Test system: Haemophilus Influenzae
Assay: in vitro antibacterial activity, agar dilution method (MIC)
Type: cell-based
Conditions: Haemophilus influenzae, ATCC9795, strain ATCC 9795; BHI agar, 20-24 hours; read-out: MIC
Exercise: for every item that follows, state its recorded MIC.
Unit µg/mL implied. Number only.

Q: I'd like to know its MIC. The compound in question is CCC1OC(=O)CC(O)C(C)C(OC2OC(C)CC(N(C)C)C2O)C(CC=O)CC(C)C(N(C)C)C=CC(C)=CC1COC(C)=O (centres unmarked)
Ans: 2

Q: I'd like to know its MIC. The compound in question is CCC1OC(=O)CC(O)C(C)C(OC2OC(C)C(O)C(N(C)C)C2O)C(CC=O)CC(C)C(N(C)C)CCC(C)=CC1COC(C)=O (centres unmarked)
Ans: 4

Q: Item CCC1OC(=O)CC(O)C(C)C(OC2OC(C)CC(N(C)C)C2O)C(CC=O)CC(C)C(N(C)C)CCC2(C)OC2C1C (centres unmarked) has what recorded MIC?
Ans: 2

Q: // MIC lookup, key: CCC1OC(=O)CC(O)C(C)C(OC2OC(C)C(O)C(N(C)C)C2O)C(CC=O)CC(C)C(N(C)C)C=CC(C)=CC1COC(C)=O (centres unmarked)
Ans: 1

Q: Query: MIC; subject: CCC1OC(=O)CC(O)C(C)C(OC2OC(C)CC(N(C)C)C2O)C(CC=O)CC(C)C(N(C)C)CCC(C)=CC1COC(C)=O (centres unmarked)
Ans: 2

###

Test system: Haemophilus Influenzae
Assay: in vitro antibacterial activity, agar dilution method (MIC)
Assay type: cell-based
Conditions: strain 503B; BHI agar, 20-24 hours
Hi there, I'd appreciate the recorded MIC for every entry that follows.
Give just the number in µg/mL; leave the unit off.

Q: Sample CCC1OC(=O)CC(O)C(C)C(OC2OC(C)CC(N(C)C)C2O)C(CC=O)CC(C)C(N(C)C)CCC2(C)OC2C1C (stereo not shown) [Example 3] — what was its MIC?
Ans: 0.5

Q: Query: MIC; subject: CCC1OC(=O)CC(O)C(C)C(OC2OC(C)C(O)C(N(C)C)C2O)C(CC=O)CC(C)C(N(C)C)CCC(C)=CC1COC(C)=O (stereo not shown) [Example 6]
Ans: 8

Q: Name the reported MIC value associated with the compound CCC1OC(=O)CC(O)C(C)C(OC2OC(C)CC(N(C)C)C2O)C(CC=O)CC(C)C(N(C)C)CCC2(C)OC2C1C (stereo not shown) [Example 2]
Ans: 2

Q: Suppose we examine the compound CCC1OC(=O)CC(O)C(C)C(OC2OC(C)C(O)C(N(C)C)C2O)C(CC=O)CC(C)C(N(C)C)CCC(C)=CC1COC(C)=O (stereo not shown) [Example 7] ; what MIC value has been reported?
Ans: 2

###

Test system: Streptococcus Pyogenes
Experiment: in vitro antibacterial activity, agar dilution method (MIC)
Format: cell-based
Settings: Streptococcus pyogenes, strain EES61; BHI agar, 20-24 hours; read-out: MIC
PROPERTY_LABEL: MIC (µg/mL)
# number only, unit µg/mL dropped from output

Q: // lookup MIC for CCC1OC(=O)CC(O)C(C)C(OC2OC(C)CC(N(C)C)C2O)C(CC=O)CC(C)C(N(C)C)CCC2(C)OC2C1C (centres unmarked)
Ans: 3.1

Q: What does the data say about its MIC? Entry: CCC1OC(=O)CC(O)C(C)C(OC2OC(C)C(O)C(N(C)C)C2O)C(CC=O)CC(C)C(N(C)C)C=CC(C)=CC1COC(C)=O (centres unmarked)
Ans: 0.1

Q: Which value of MIC has been reported for CCC1OC(=O)CC(O)C(C)C(OC2OC(C)CC(N(C)C)C2O)C(CC=O)CC(C)C(N(C)C)CCC(C)=CC1COC(C)=O (centres unmarked) in the records?
Ans: 0.78

Q: Which MIC is listed for CC[C@H]1OC(=O)C[C@@H](O)[C@H](C)[C@@H](O[C@@H]2O[C@H](C)C[C@H](N(C)C)[C@H]2O)[C@@H](CC=O)C[C@@H](C)C(=O)/C=C/[C@]2(C)O[C@H]2[C@@H]1C [Rosaramicin, reference compound] ?
Ans: 0.1

Q: If you can, please state the reported MIC value of CCC1OC(=O)CC(O)C(C)C(OC2OC(C)C(O)C(N(C)C)C2O)C(CC=O)CC(C)C(N(C)C)CCC(C)=CC1COC(C)=O (centres unmarked) .
Ans: 0.39
